- system-name: T1, rhesus c-Met on 4MBr-5 cells (rhesus, UniProt F7H1K4 25-1381, Natural c-Met is cleaved at the furin site (KRKKR/S) into disulphide-linked alpha and beta subunits; given here as one mature polypeptide.)
- T1 construct: also called rhesus c-Met antigen
- T1 sequence (F7H1K4 entry or part of it limits assumed): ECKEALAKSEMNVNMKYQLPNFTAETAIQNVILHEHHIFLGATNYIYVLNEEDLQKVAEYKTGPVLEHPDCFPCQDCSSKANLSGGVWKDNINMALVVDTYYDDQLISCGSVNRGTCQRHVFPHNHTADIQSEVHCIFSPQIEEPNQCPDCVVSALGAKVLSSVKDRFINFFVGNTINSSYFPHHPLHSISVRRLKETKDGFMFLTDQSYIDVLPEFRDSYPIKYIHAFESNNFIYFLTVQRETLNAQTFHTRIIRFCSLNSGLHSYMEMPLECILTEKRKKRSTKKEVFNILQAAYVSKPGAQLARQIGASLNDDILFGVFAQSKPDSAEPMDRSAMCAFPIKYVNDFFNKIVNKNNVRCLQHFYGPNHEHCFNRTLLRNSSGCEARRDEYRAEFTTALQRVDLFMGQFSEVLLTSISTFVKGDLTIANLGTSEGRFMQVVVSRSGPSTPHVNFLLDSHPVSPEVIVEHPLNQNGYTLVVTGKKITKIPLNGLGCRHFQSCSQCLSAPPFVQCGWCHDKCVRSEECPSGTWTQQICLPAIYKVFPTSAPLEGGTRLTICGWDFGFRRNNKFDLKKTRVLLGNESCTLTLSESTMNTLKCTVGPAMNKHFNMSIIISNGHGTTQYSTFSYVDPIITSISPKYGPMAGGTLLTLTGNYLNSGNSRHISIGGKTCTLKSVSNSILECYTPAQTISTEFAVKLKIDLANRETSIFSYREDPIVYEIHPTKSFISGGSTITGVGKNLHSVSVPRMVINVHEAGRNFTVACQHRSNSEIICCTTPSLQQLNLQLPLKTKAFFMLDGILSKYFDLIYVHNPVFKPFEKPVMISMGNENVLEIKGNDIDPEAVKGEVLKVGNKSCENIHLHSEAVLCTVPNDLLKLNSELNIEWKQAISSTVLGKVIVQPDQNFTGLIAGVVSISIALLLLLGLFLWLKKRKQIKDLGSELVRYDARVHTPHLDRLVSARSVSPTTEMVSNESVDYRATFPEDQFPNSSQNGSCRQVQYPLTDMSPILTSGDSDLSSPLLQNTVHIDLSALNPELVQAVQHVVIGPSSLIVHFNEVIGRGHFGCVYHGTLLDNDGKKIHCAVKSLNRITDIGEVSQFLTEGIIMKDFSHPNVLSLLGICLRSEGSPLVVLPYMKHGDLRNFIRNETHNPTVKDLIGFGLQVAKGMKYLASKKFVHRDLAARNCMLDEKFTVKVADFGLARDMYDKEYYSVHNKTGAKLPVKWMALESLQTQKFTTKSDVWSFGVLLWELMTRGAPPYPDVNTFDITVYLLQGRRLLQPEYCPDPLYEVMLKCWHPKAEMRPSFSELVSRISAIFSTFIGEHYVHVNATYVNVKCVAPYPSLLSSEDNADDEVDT
- experimental-protocol: flow cytometry, 4MBr-5 cells; EC50 with 50 ng/mL HGF against EC50 without HGF
observed-property: Fold shift (HGF) (fold)
Return type: number; implicit unit fold.

Solved cases below.
binder | observed-property | result-number
mAb3e (antibody, human IgG1, kappa, V domains shown, Humanized IgG1 kappa, HC-41C, from wt/41C-chi-mAb3; also called humanized HC-41C antibody mAb3e) VH: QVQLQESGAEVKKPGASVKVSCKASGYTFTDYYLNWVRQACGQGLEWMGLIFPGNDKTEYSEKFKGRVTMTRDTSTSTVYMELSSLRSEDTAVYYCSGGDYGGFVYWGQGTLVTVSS VL: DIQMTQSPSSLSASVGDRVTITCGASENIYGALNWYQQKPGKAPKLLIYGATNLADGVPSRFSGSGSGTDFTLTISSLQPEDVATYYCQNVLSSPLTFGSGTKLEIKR | Fold shift (HGF) | 1.4
mAb2b (antibody, human IgG1, kappa, V domains shown, Humanized IgG1 kappa, HC-41C, from wt/41C-chi-mAb2; also called humanized HC-41C antibody mAb2b) VH: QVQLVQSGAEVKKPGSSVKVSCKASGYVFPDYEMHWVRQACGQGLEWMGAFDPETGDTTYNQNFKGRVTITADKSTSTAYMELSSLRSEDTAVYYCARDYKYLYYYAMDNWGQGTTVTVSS VL: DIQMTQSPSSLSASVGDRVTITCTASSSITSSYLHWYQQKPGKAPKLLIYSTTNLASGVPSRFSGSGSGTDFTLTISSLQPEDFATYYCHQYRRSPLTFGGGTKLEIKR | Fold shift (HGF) | 1.7

Quick one: Fold shift (HGF) of mAb3d (antibody, human IgG1, kappa, V domains shown, Humanized IgG1 kappa, HC-41C, from wt/41C-chi-mAb3; also called humanized HC-41C antibody mAb3d) VH: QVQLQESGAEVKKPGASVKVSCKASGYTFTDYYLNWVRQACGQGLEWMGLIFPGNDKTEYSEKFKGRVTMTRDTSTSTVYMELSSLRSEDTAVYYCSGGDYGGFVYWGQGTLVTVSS VL: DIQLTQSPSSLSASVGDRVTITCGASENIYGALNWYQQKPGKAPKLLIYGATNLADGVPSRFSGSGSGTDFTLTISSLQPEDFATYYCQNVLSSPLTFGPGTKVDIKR ?
1.6
